Reported log10 MIC is given for each of the following compounds.
# Tested on: Pseudomonas aeruginosa
# RUN DESCRIPTION: In vitro antimicrobial activity against Pseudomonas aeruginosa ATCC 27853 strain
# Type: functional
# REPORTED CONDITIONS: Pseudomonas aeruginosa, ATCC 27853; read-out: MIC
Kindly note that the scale is log10 and the underlying MIC is in µg/mL.

Example results:
C[C@@H](N)C(=O)NC[C@@H]1COC[C@@H]1SC1=C(C(=O)O)N2C(=O)[C@H]([C@@H](C)O)C2[C@H]1C (some centres not stated): 1.81
C[C@H]1C(S[C@@H]2COC[C@@H]2CN)=C(C(=O)O)N2C(=O)[C@H]([C@@H](C)O)C12 (some centres not stated): 1.20
CC(C)[C@@H](N)C(=O)NC[C@H]1OCC[C@H]1SC1=C(C(=O)O)N2C(=O)[C@H]([C@@H](C)O)C2[C@H]1C (some centres not stated): 1.51
C[C@@H](O)[C@H]1C(=O)N2C(C(=O)O)=C(SCCNC=N)C[C@H]12.O: 0.00
C[C@@H](O)[C@H]1C(=O)N2C(C(=O)O)=C(S[C@@H]3CCO[C@@H]3CN)[C@H](C)[C@H]12: 0.90

**Q:** Using the record for C[C@@H](N)C(=O)NC[C@H]1OCC[C@H]1SC1=C(C(=O)O)N2C(=O)[C@H]([C@@H](C)O)C2[C@H]1C (some centres not stated) , report its log10 MIC.
**A:** 1.51

**Q:** Quick one: log10 MIC of C[C@H]1C(S[C@@H]2CCO[C@@H]2CNC(=O)CN)=C(C(=O)O)N2C(=O)[C@H]([C@@H](C)O)C12 (some centres not stated) ?
**A:** 0.90

----------
# System: Escherichia coli
# RUN DESCRIPTION: In vitro antimicrobial activity against Escherichia coli ATCC 25922 strain
# Type: functional
As shown below, each of these molecules has a reported MIC value.

# annotated cases, reported MIC shown
C[C@@H](N)C(=O)NC[C@H]1OCC[C@H]1SC1=C(C(=O)O)N2C(=O)[C@H]([C@@H](C)O)C2[C@H]1C (stereo partly specified): ≤ 0.06 µg/mL
C[C@H]1C(S[C@H]2COC[C@H]2CN)=C(C(=O)O)N2C(=O)[C@H]([C@@H](C)O)C12 (stereo partly specified): < 0.06 µg/mL
C[C@H]1C(S[C@@H]2COC[C@@H]2CN)=C(C(=O)O)N2C(=O)[C@H]([C@@H](C)O)C12 (stereo partly specified): 0.12 µg/mL
C[C@@H](N)C(=O)NC[C@@H]1C[C@H](SC2=C(C(=O)O)N3C(=O)[C@H]([C@@H](C)O)C3[C@H]2C)CO1 (stereo partly specified): < 0.06 µg/mL
C[C@@H](N)C(=O)NC[C@H]1COC[C@H]1SC1=C(C(=O)O)N2C(=O)[C@H]([C@@H](C)O)C2[C@H]1C (stereo partly specified): < 0.06 µg/mL
C[C@H]1C(S[C@@H]2CCO[C@@H]2CNC(=O)CN)=C(C(=O)O)N2C(=O)[C@H]([C@@H](C)O)C12 (stereo partly specified): < 0.06 µg/mL
CC[C@@H](C)[C@@H](N)C(=O)NC[C@H]1OCC[C@H]1SC1=C(C(=O)O)N2C(=O)[C@H]([C@@H](C)O)C2[C@H]1C (stereo partly specified): ≤ 0.06 µg/mL
C[C@H]1C(SC2COC(CN)C2)=C(C(=O)O)N2C(=O)[C@H]([C@@H](C)O)C12 (stereo in doubt; trans): < 0.06 µg/mL

**Q:** Bench note: what MIC did `C[C@@H](O)[C@H]1C(=O)N2C(C(=O)O)=C(S[C@@H]3CCO[C@@H]3CN)[C@H](C)[C@H]12` show?
**A:** ≤ 0.06 µg/mL

**Q:** Reported MIC for C[C@H]1C(S[C@@H]2CCO[C@@H]2CNC(=O)[C@@H](N)Cc2ccccc2)=C(C(=O)O)N2C(=O)[C@H]([C@@H](C)O)C12 (stereo partly specified) : what is it?
**A:** 0.5 µg/mL

**Q:** Consider the molecule shown here: C[C@H]1C(S[C@@H]2CCO[C@@H]2CNC(=O)[C@H](N)Cc2ccccc2)=C(C(=O)O)N2C(=O)[C@H]([C@@H](C)O)C12 (stereo partly specified) What is its recorded MIC?
**A:** 0.25 µg/mL

**Q:** What value of measured MIC is listed for C[C@@H](O)[C@H]1C(=O)N2C(C(=O)O)=C(SCCNC=N)C[C@H]12.O [IMIPENEM] ?
**A:** 0.12 µg/mL

**Q:** I have this molecule here, C[C@@H](N)C(=O)NC[C@@H]1COC[C@@H]1SC1=C(C(=O)O)N2C(=O)[C@H]([C@@H](C)O)C2[C@H]1C (stereo partly specified) , and I need its recorded MIC.
**A:** 0.25 µg/mL

**Q:** Entry C[C@@H](N)C(=O)NC[C@@H]1C[C@@H](SC2=C(C(=O)O)N3C(=O)[C@H]([C@@H](C)O)C3[C@H]2C)CO1 (stereo partly specified) has what MIC?
**A:** < 0.06 µg/mL

**Q:** Look up MIC: C[C@H](N)C(=O)NC[C@H]1OCC[C@H]1SC1=C(C(=O)O)N2C(=O)[C@H]([C@@H](C)O)C2[C@H]1C (stereo partly specified)
**A:** < 0.06 µg/mL

**Q:** Given the molecule CC(C)[C@@H](N)C(=O)NC[C@H]1OCC[C@H]1SC1=C(C(=O)O)N2C(=O)[C@H]([C@@H](C)O)C2[C@H]1C (stereo partly specified) , what is its reported MIC?
**A:** ≤ 0.06 µg/mL
